pIC50 values, listed per item
- SYSTEM UNDER TEST: CtermHisTag-mEGFR Wild type (Homo sapiens)
- Sequence (P00533 whole entry): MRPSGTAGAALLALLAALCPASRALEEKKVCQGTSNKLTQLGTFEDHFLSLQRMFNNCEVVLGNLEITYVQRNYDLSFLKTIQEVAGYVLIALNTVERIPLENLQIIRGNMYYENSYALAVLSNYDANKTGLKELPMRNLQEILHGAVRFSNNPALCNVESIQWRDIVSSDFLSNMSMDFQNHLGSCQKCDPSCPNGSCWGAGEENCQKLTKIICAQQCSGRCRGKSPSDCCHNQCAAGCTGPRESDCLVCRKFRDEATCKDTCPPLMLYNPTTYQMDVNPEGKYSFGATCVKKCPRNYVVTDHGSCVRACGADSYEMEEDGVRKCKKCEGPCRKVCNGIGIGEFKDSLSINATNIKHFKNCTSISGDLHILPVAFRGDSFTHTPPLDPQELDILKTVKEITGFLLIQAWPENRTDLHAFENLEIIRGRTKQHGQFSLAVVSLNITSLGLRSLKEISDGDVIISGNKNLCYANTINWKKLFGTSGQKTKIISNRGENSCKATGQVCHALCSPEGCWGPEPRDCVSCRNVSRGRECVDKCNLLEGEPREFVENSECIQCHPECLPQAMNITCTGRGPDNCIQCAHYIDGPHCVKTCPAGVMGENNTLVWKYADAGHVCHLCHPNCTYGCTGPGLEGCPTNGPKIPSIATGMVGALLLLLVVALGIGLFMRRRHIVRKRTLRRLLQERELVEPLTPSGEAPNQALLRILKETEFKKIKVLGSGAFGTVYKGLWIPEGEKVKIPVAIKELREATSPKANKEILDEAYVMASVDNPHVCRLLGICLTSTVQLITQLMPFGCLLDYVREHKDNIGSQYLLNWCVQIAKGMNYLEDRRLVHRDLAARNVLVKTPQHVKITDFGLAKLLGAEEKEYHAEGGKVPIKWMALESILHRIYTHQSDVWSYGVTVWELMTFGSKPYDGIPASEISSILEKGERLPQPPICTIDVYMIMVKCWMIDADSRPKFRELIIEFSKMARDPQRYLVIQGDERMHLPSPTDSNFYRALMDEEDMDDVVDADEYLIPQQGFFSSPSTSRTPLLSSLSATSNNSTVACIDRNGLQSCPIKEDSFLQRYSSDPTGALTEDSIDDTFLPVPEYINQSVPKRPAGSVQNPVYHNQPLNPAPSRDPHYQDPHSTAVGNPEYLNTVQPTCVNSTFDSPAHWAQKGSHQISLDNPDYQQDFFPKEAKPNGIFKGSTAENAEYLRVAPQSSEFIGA
- PROTOCOL SUMMARY: biochemical
pIC50: −log10 of the molar value.

- SUBSTANCE SMILES: "C#Cc1c(C)c(=O)n(Cc2cnoc2)c2nc(Nc3ccc(N4CCN(C)CC4)cc3)ncc12"
  RESULT: "< 5.00"
- SUBSTANCE SMILES: "C#Cc1cc(=O)n(-c2ccccc2)c2nc(Nc3ccc(N(C)CCN(C)C)cc3)ncc12"
  RESULT: "> 6.00"
- SUBSTANCE SMILES: "C#Cc1c(-c2ccccc2Cl)c(=O)n(C)c2nc(Nc3cccc(OC)c3)ncc12"
  RESULT: "5.00 to 6.00"
- SUBSTANCE SMILES: "C#Cc1cc(=O)n2c3nc(ncc13)Nc1ccc(N3CCN(C)CC3)c(c1)COCCCC2"
  RESULT: "> 6.00"
- SUBSTANCE SMILES: "C#Cc1cc(=O)n2c3nc(ncc13)Nc1ccc(N3CCN(C(C)C)CC3)c(c1)NC(=O)CCC2"
  RESULT: "> 6.00"
- SUBSTANCE SMILES: "C=Cc1c(-c2ccccc2Cl)c(=O)n(C)c2nc(N)ncc12"
  RESULT: "< 5.00"
- SUBSTANCE SMILES: "C#Cc1c(-c2ccccc2OC)c(=O)n(C)c2nc(Nc3ccc(N(C)CCN(C)C)cc3)ncc12"
  RESULT: "5.00 to 6.00"
- SUBSTANCE SMILES: "C#Cc1cc(=O)n(-c2ccccc2)c2nc(Nc3ccc(N(C)CCN(C)C)c(C)c3)ncc12"
  RESULT: "> 6.00"

QUERY: Which measured pIC50 value corresponds to C#Cc1cc(=O)n([C@H]2CC[C@H](NC(C)=O)CC2)c2nc(Nc3ccc(N4CCN(C)CC4)cc3)ncc12 ?
RESULT: > 6.00

QUERY: Next: C#Cc1cc(=O)n(C2CCCC2)c2nc(Nc3ccccc3OC)ncc12
RESULT: < 5.00

QUERY: Next: C#Cc1cc(=O)n(-c2ccccc2)c2nc(Nc3ccc(N4CCC(N5CC(N(C)C)C5)CC4)cc3)ncc12
RESULT: > 6.00

QUERY: Next: C#Cc1cc(=O)n2c3nc(ncc13)Nc1ccc(N3CCN(C)CC3)c(c1)N(C)C(=O)CCC2
RESULT: < 5.00

QUERY: Next: C#Cc1c(C(=O)NC)c(=O)n(-c2ccccc2)c2nc(Nc3ccccc3OC)ncc12
RESULT: < 5.00

QUERY: Next: C#Cc1cc(=O)n2c3nc(ncc13)Nc1ccc(N3CCCN(C)CC3)c(c1)NC(=O)CCC2
RESULT: > 6.00

QUERY: Next: C#Cc1cc(=O)n(-c2ccccc2)c2nc(Nc3ccc(N4CCN(C)CC4)c(CC)c3)ncc12
RESULT: > 6.00

QUERY: Next: C#Cc1cc(=O)n(C2CCCC2)c2nc(Nc3cccc4c3CN(C)C4)ncc12
RESULT: 5.00 to 6.00

---

IC50 values, listed per item
- SYSTEM UNDER TEST: CtermHisTag-mEGFR Wild type (Homo sapiens)
- PROTOCOL SUMMARY: biochemical

- SUBSTANCE SMILES: "C#Cc1c(-c2ccccc2Cl)c(=O)n(C)c2nc(Nc3ccc(N4CCN(C)CC4)cc3OC)ncc12"
  IC50: "< 1 µM"
- SUBSTANCE SMILES: "C#Cc1cc(=O)n2c3nc(ncc13)Nc1ccc(N3CCN(C)CC3)c(c1)OC[C@@H]1CC[C@@H](C1)C2"
  IC50: "< 1 µM"
- SUBSTANCE SMILES: "C#Cc1c(C)c(=O)n(Cc2cnn(C)c2)c2nc(Nc3ccc(N4CCN(C)CC4)cc3)ncc12"
  IC50: "1 to 10 µM"
- SUBSTANCE SMILES: "C#Cc1cc(=O)n(-c2cccc(NC(C)=O)c2)c2nc(Nc3ccccc3OC)ncc12"
  IC50: "> 10 µM"
- SUBSTANCE SMILES: "C#Cc1c(C)c(=O)n(Cc2cnc[nH]2)c2nc(Nc3ccc(N4CCN(C)CC4)cc3)ncc12"
  IC50: "1 to 10 µM"
- SUBSTANCE SMILES: "C#Cc1cc(=O)n(C)c2nc(Nc3ccc(N4CCN(C)CC4)c(NC(=O)CC4CCCC4)c3)ncc12"
  IC50: "< 1 µM"
- SUBSTANCE SMILES: "C#Cc1cc(=O)n(C)c2nc(Nc3ccc(N(C)CCN(C)C)c(-c4cnn(C)c4)c3)ncc12"
  IC50: "< 1 µM"
- SUBSTANCE SMILES: "C#Cc1cc(=O)n(-c2ccccc2)c2nc(Nc3ccc(N4CCOCC4)cc3OC)ncc12"
  IC50: "< 1 µM"

QUERY: Which measured IC50 value corresponds to C#Cc1cc(=O)n2c3nc(ncc13)Nc1ccc(N3CCN(CCOC)CC3)c(c1)NC(=O)CCC2 ?
RESULT: < 1 µM

QUERY: Next: C#Cc1cc(=O)n(C(C)C)c2nc(Nc3ccc(N4CCN(C)CC4)cc3)ncc12
RESULT: < 1 µM

QUERY: Next: C#Cc1c(C)c(=O)n(Cc2ccccn2)c2nc(Nc3ccc(N4CCN(C)CC4)cc3)ncc12
RESULT: < 1 µM

QUERY: Next: C#Cc1c(C)c(=O)n(Cc2ncc[nH]2)c2nc(Nc3ccc(N4CCN(C)CC4)cc3)ncc12
RESULT: 1 to 10 µM

QUERY: Next: C=Cc1c(Cc2ccccc2)c(=O)n(C)c2nc(Nc3ccc(N(C)CCN(C)C)cc3)ncc12
RESULT: > 10 µM

QUERY: Next: C#Cc1cc(=O)n([C@H]2CC[C@@H](N(C)C(=O)CN(C)C)CC2)c2nc(Nc3ccccc3OC)ncc12
RESULT: > 10 µM

QUERY: Next: C#Cc1c(-c2ccccc2Cl)c(=O)n(C)c2nc(Nc3ccc(OCCN(C)C)cc3)ncc12
RESULT: < 1 µM

QUERY: Next: C#Cc1cc(=O)n2c3nc(ncc13)Nc1ccc(N3CCN(C)CC3)c(c1)S(=O)(=O)NCCC2
RESULT: < 1 µM

QUERY: Next: C#Cc1cc(=O)n2c3nc(ncc13)Nc1ccc(N3CCN(C)CC3)c(c1)CCOCC2
RESULT: < 1 µM

QUERY: Next: C#Cc1c(Cc2ccccc2)c(=O)n(C)c2nc(Nc3ccc(N(C)CCN(C)C)cc3OC)ncc12
RESULT: 1 to 10 µM

QUERY: Next: C#Cc1cc(=O)n2c3nc(ncc13)Nc1ccc(N3CCN(C)CC3)c(c1)CCNC(=O)C2
RESULT: 1 to 10 µM

QUERY: Next: C#Cc1c(-c2c(Cl)cccc2Cl)c(=O)n(C)c2nc(Nc3ccc(N(C)CCN(C)C)cc3)ncc12
RESULT: > 10 µM

---

- SYSTEM UNDER TEST: Phospho-EGFR (Tyr1068) in H1975 C797S cells (CRISPR-edited EGFR C797S) (Homo sapiens, UniProt P00533, C797S/L858R/T790M)
- Sequence (P00533 25-1210 T790M/C797S/L858R): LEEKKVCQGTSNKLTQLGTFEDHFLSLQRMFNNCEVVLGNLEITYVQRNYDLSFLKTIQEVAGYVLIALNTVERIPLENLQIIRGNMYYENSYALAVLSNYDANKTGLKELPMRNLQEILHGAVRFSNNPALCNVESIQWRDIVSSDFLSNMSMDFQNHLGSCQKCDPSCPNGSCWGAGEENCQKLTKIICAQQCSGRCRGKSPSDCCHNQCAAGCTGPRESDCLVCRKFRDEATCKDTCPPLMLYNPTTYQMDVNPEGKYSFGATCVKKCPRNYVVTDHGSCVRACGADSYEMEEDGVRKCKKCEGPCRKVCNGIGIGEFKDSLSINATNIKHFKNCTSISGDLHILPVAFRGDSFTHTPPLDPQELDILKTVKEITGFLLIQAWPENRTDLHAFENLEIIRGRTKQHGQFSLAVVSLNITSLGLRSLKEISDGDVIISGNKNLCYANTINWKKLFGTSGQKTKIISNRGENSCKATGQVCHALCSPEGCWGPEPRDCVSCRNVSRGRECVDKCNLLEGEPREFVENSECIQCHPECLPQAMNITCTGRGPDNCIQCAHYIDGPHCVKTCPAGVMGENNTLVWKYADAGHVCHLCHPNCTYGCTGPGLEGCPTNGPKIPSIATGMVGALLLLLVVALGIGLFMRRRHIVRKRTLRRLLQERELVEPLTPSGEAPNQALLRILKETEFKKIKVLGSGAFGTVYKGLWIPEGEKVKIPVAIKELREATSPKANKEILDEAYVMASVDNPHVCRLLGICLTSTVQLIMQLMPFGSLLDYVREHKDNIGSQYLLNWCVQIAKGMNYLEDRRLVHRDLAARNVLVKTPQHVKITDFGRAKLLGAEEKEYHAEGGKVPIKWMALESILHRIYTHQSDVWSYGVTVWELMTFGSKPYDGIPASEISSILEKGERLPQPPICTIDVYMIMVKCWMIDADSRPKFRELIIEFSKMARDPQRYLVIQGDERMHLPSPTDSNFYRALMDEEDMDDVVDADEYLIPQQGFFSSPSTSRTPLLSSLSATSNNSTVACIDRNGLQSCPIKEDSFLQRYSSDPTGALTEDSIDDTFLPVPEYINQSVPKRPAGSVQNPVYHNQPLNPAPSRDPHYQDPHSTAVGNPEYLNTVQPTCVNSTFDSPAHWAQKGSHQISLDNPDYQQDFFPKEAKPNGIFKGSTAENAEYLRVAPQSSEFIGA
- PROTOCOL SUMMARY: HTRF pEGFR/total EGFR in H1975 C797S cells
- COND: ratio pEGFR/total EGFR, compound 3 hours
pIC50: −log10 of the molar value.
pIC50 values, listed per item

- MOLECULE: "C#Cc1c(Nc2ccccc2)c(=O)n(C)c2nc(Nc3ccc(N(C)CCN(C)C)cc3)ncc12 [Example 144]"
  MEASURED PARAMETER: "pIC50"
  RESULT: "5.52 to 6.00"
- MOLECULE: "C#Cc1c(-c2ccccc2Cl)c(=O)n(C)c2nc(Nc3ccc(N(C)CCN(C)C)cc3)ncc12 [Example 126]"
  MEASURED PARAMETER: "pIC50"
  RESULT: "< 5.52"
- MOLECULE: "C=Cc1cc(=O)n(-c2ccc(OC)cc2OC)c2nc(Nc3ccc(N(C)CCN(C)C)cc3)ncc12 [Example 155]"
  MEASURED PARAMETER: "pIC50"
  RESULT: "< 5.52"
- MOLECULE: "C#Cc1cc(=O)[nH]c2nc(Nc3ccc(N4CCN(C)CC4)c(CNC(=O)C=C)c3)ncc12 [Example 201]"
  MEASURED PARAMETER: "pIC50"
  RESULT: "6.00 to 6.30"
- MOLECULE: "C#Cc1cc(=O)n(C)c2nc(Nc3ccc(N4CCN(C)CC4)c(OCCc4ccccc4)c3)ncc12 [Example 214]"
  MEASURED PARAMETER: "pIC50"
  RESULT: "> 6.30"

QUERY: Which measured pIC50 value corresponds to C#Cc1cc(=O)n2c3nc(ncc13)Nc1ccc(N3CCN(C(C)C)CC3)c(c1)NC(=O)CCC2 [Example 235] ?
RESULT: > 6.30

QUERY: Next: C#Cc1cc(=O)n([C@H]2CC[C@@H](NC(=O)CN(C)C)CC2)c2nc(Nc3ccccc3OC)ncc12 [Example 90]
RESULT: < 5.52
